Target: T1, GAPR-1 (UniProt Q9H4G4 2-154, limits assumed)
T1 construct: Purified protein used in MST; also called purified Gapr-1
T1 sequence (looked up): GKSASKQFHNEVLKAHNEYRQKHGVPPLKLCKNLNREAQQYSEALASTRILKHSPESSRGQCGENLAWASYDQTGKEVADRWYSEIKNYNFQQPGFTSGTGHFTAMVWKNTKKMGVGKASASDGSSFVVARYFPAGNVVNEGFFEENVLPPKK
Test: MicroScale Thermophoresis (MST), purified Gapr-1
Measurement Name: pKd
# pKd is unitless: minus log10 of the molar concentration; print number only

pKd for LYCSGGLRFFWD (also called peptide P8T) [P8T] ?
6.92

Reported pKd for QTVLLLHAL (also called peptide P9T) [P9T] : what is it?
5.81

pKd lookup needed for RLVPYGNHSYLES (also called peptide P13T) [P13T] , thanks.
7.15

What does the data say about its pKd? Entry: FGTINNFRL (also called peptide P7T) [P7T]
6.89
